meta.source: ChEMBL document CHEMBL1201862

Test system: UACC-62
Assay: NCI tumour cell line growth inhibition, 48 h
Calls of active or inactive are those of the source. Cut-off read from the data, not from the text of the source: active = GI50 up to about 1.1 µM and inactive = higher.
measured_parameter: GI50

Field: example entries. Status: answers known.
# compound, GI50
data = [
    ("CC(=C(c1ccccc1)c1ccccc1)N1C(=O)CC(=O)N1C", "26 µM (inactive)"),
    ("Cn1c(=O)n2n(c1=O)C1C(=CC2)C2C=CC1n1c(=O)n(C)c(=O)n12 (centres undefined)", "> 100 µM (inactive)"),
    ("COC(=O)C(Cc1ccccc1)/N=C/c1c(O)c(O)c(C(C)C)c2cc(C)c(-c3c(C)cc4c(C(C)C)c(O)c(O)c(/C=N/C(Cc5ccccc5)C(=O)OC)c4c3O)c(O)c12 (centres undefined)", "22.5 µM (inactive)"),
    ("C[C@@H]1CC(=O)[C@@]2(C)[C@](O)(CCC3O[C@]32C)[C@@]12CC(c1ccoc1)OC2=O (some centres undefined)", "56.9 µM (inactive)"),
]

input: Item O=C(O)C(F)(F)C(F)(F)C(F)(F)C(F)(F)C(F)(F)C(F)(F)C(F)(F)C(F)(F)F has what recorded GI50?
output: > 100 µM (inactive)

input: Recorded GI50 for Cc1cc(C(=C2C=CC(=N)C=C2)c2ccc(N)cc2)ccc1N [FUCHSIN, BASIC] , please?
output: 4.45 µM (inactive)

input: Need GI50, item CCCCCCCCCCCCCCCCOCC(CC(F)(F)P(=O)(O)O)OC(C)=O (centres undefined)
output: > 50 µM (inactive)

input: Need GI50, item CCOC(=O)C(NCc1cccc(C(F)(F)F)c1)(NC(=O)CC)C(F)(F)F (centres undefined)
output: 96.6 µM (inactive)

input: Query: GI50; subject: C/C(=N\Nc1nc2ccccc2o1)c1cccc[n+]1[O-]
output: 46.1 µM (inactive)

====

Each entry below carries its reported GI50.
System: A549
Assay: NCI tumour cell line growth inhibition, 48 h
Activity calls are given as the source filed them. Cut-off read from the data, not from the text of the source: active = GI50 up to about 1.1 µM and inactive = higher.

Past entries and their recorded results:
# molecule, GI50
measured = [
    ("O=C(O)c1cc(O)c2c(c1)C([C@@H]1c3cccc(O)c3C(=O)c3c(O)cc(C(=O)O)cc31)c1cccc(O)c1C2=O (stereo not given in full)", "> 100 µM (inactive)"),
    ("O=C(Nc1ccccc1C(=O)NCc1ccccc1)/C(=C/c1ccccc1O)NC(=O)c1ccccc1", "> 100 µM (inactive)"),
    ("Cc1ccnc2nc3[nH]c4ccccc4c3cc12", "> 100 µM (inactive)"),
    ("COc1cc(OC)c(-c2ccc(OCc3ccccc3)c3c(OC)cc(C)cc23)c2c1C(C)=N[C@H](C)C2", "2.3 µM (inactive)"),
    ("CC(=O)Nc1cc(N(CCOS(C)(=O)=O)CCOS(C)(=O)=O)ccc1N=O", "> 100 µM (inactive)"),
]

input: // lookup GI50 for CC1OC23CCCCC2C(C#N)(C#N)C1(C#N)C(=N)O3 (stereo not given)
output: 96.2 µM (inactive)

input: Fill blank: measured GI50 of the molecule CCCCCCCCOCC(O)CO (stereo not given) is ____.
output: > 100 µM (inactive)

input: Value lookup for GI50; key = O=C(O)c1ccc(C(=O)O)c2c(C(=O)O)ccc(C(=O)O)c12
output: > 100 µM (inactive)

input: Give its GI50 value. Item: O=C1Nc2ccccc2/C1=C1/Nc2ccccc2/C1=N/OCCO
output: 1.52 µM (inactive)

input: Requested read-out: GI50. Entry: COc1cc2cnc3c4cc(OC)c(OC(C)C)cc4ccc3c2cc1OC
output: > 100 µM (inactive)

====

System: A498
Test: NCI tumour cell line growth inhibition, 48 h
Active and inactive are the calls of the source. No stated cut-off is given here; in the data, active = GI50 up to about 1.1 µM and inactive = higher.
The molecules listed here are annotated with their GI50.

# molecule, GI50
measured = [
    ("C/C(=N\\Nc1nc2ccccc2o1)c1cccc[n+]1[O-]", "45.1 µM (inactive)"),
    ("NCCCCC(=O)c1cccnc1", "> 100 µM (inactive)"),
    ("COc1ccc(C2(CC(C)C)CCNC2)cc1OC (stereo not given)", "> 100 µM (inactive)"),
    ("CC1(C)C/N=C/C(C)(OCc2ccccc2)C(=O)NC(C)(C)C/N=C/C(C)(OCc2ccccc2)C(=O)N1 (stereo not given)", "> 10 µM (inactive)"),
]

The record that follows has no GI50 shown yet.
input: I would be grateful if you could share the reported GI50 for CCCCCCCCCCC(O)C1CCC(C(O)CCC(O)C2CCC(CCCCCCC[C@H](O)CC3=C[C@@H](C)OC3=O)O2)O1 (stereo not given in full) .
output: 22.2 µM (inactive)

====

System: BT-549
Assay: NCI tumour cell line growth inhibition, 48 h
Active and inactive are the calls of the source. Cut-off read from the data, not from the text of the source: active = GI50 up to about 1.1 µM and inactive = higher.
measured_parameter: GI50

# molecule, endpoint_value
data = [
    ("COc1cc2c(cc1OC)-c1cc3cc(OC)c(OC)cc3c(=O)n1CC2", "37.3 µM (inactive)"),
    ("COc1ccc(C2(CC(C)C)CCNC2)cc1OC (stereo unspecified)", "> 100 µM (inactive)"),
    ("CC(C)(C)OC(=O)N1CC(O)O[C@H](c2ccccc2)[C@@H]1c1ccccc1 (stereo partly specified)", "17.8 µM (inactive)"),
    ("CC(=C(c1ccccc1)c1ccccc1)N1C(=O)CC(=O)N1C", "34.8 µM (inactive)"),
]

input: Looking for the measured GI50 of COc1ccc(-n2cnc3c(NCC(=O)O)ncnc32)cc1 , can you help?
output: > 100 µM (inactive)

input: # lookup: GI50 of Cc1ccc(S(=O)(=O)N/N=C2\CC3CC4CCC2C4C3)cc1 (stereo unspecified)
output: > 100 µM (inactive)

====

System: EKVX
Experiment: NCI tumour cell line growth inhibition, 48 h
Activity calls are given as the source filed them. Cut-off read from the data, not from the text of the source: active = GI50 up to about 1.1 µM and inactive = higher.
measured_parameter: GI50

# compound, endpoint_value
measured = [
    ("CCOC(=N)CC(=O)c1ccccc1", "> 100 µM (inactive)"),
]

input: I have this compound here, CC1=C[C@@H](C)C[C@]2(C)CC[C@H](O2)[C@]23CC[C@](C(=O)O)(C[C@H](O2)[C@@H]2O[C@@](C)(CC2=O)[C@@H](O)[C@H]2CC[C@@]4(CCC[C@@H](O4)[C@H](C)C(=O)O[C@H]4C[C@H]([C@]5(O)OCC[C@H](C)[C@@H]5O)O[C@H]4C=C1)O2)O3 , and I need its recorded GI50.
output: > 10 µM (inactive)

input: Give the measured GI50 of C=C(C)CC1=C(OCC)C(OC)(OCC)C1=O (stereo not drawn) .
output: > 100 µM (inactive)

input: # input compound: C[C@]12CC[C@@H]3c4cc(Br)c(O)c(Br)c4CC[C@H]3[C@@H]1CCC2=O ; wanted: its GI50
output: 25.5 µM (inactive)

====

Tested on: HT-29
Assay: NCI tumour cell line growth inhibition, 48 h
Calls of active or inactive are those of the source. No stated cut-off is given here; in the data, active = GI50 up to about 1.1 µM and inactive = higher.
Hi! Could you answer with just one of these? yes (active), no (inactive)

# smiles_input, target_of_assay, label_value
records = [
    ("Cc1cc(=O)nc(S(=O)(=O)NC(=S)Nc2ccc(Cl)cc2)[nH]1", "HT-29", "no"),
]

input: What did the test return for COc1ccc(S(=O)(=O)N(C)CC(=O)O)cc1 ?
output: no

input: Entry O=C(NNC(=S)Nc1ccc(Br)cc1)c1cc(-c2ccccc2)nc2ccccc12 : call = ?
output: no

input: Look up the recorded call for COc1cc2c(cc1OC)-c1cc3cc(OC)c(OC)cc3c(=O)n1CC2 in this test.
output: no

input: Just curious, what result did Oc1cccc(-c2cccc(O)n2)n1 get here?
output: no

input: What was the test verdict on O=C(NC(=O)c1ccccc1[N+](=O)[O-])Nc1ccc(Oc2ncc(Cl)cn2)c(C(F)(F)F)c1 ?
output: yes

====

System: UACC-62
Assay: NCI tumour cell line growth inhibition, 48 h
Activity calls are given as the source filed them. No stated cut-off is given here; in the data, active = GI50 up to about 1.1 µM and inactive = higher.
Assign a class; possible classes are active, inactive

Consider the worked cases shown below.
# molecule, label_value
data = [
    ("COc1cc([C@@H]2c3cc4c(cc3[C@@H](NC(=O)c3ccc(N)cc3)C3COC(=O)[C@@H]32)OCO4)cc(OC)c1O (stereo partly specified)", "inactive"),
    ("COc1cccc(SSc2cccc(OC)c2C(=O)O)c1C(=O)O", "inactive"),
    ("O=C1Nc2ccccc2/C1=C1/Nc2ccccc2/C1=N/OCCO", "inactive"),
    ("C/C=C(/COC(C)=O)C(=O)OC1C=C(C=O)C(C)(C)C=C1C (stereo unspecified)", "inactive"),
    ("COC1(CC[C@H](C)COC2OC(CO)C(O)C(O)C2O)O[C@H]2C[C@H]3[C@@H]4CC=C5C[C@@H](OC6OC(CO)C(O)C(OC7OC(CO)C(O)C(O)C7O)C6OC6OC(C)C(O)C(O)C6O)CC[C@]5(C)[C@H]4CC[C@]3(C)[C@H]2[C@@H]1C (stereo partly specified)", "inactive"),
]

input: Assay outcome for CC1=C[C@@H](C)C[C@]2(C)CC[C@H](O2)[C@]23CC[C@](C(=O)O)(C[C@H](O2)[C@@H]2O[C@@](C)(CC2=O)[C@@H](O)[C@H]2CC[C@@]4(CCC[C@@H](O4)[C@H](C)C(=O)O[C@H]4C[C@H]([C@]5(O)OCC[C@H](C)[C@@H]5O)O[C@H]4C=C1)O2)O3 : what was it?
output: inactive

input: What did this assay record as the result for Cc1cc(O)c2c(c1O)C(=O)C13C(=C(O)C4C(O)C1C1C(O)C3C(O)=C3C(=O)c5c(O)cc(C)c(O)c5C(=O)C341)C2=O (stereo unspecified) ?
output: active

input: For CN(CC(=O)O)c1ncc2c(n1)C=CCC2 , what call appears in the results of this test?
output: inactive

input: For Cc1cc(N2CCCC2)c([N+](=O)[O-])cc1[N+](=O)[O-] , what call appears in the results of this test?
output: inactive

input: Please let me know the test result on file for CC(C)C1(O)C(c2ccccc2)=C(c2ccccc2)C(c2ccccc2)=C1c1ccccc1 .
output: inactive
